// data source = PubChem BioAssay (NCI)

Answer each item with its documented TGI.
system: OVCAR-4 ovarian; assay: NCI tumour cell line growth inhibition, 48 h

TGI for O=Cc1cc(O)c(O)c(O)c1-c1c(C=O)cc(O)c(O)c1O is > 100 µM

TGI for CC1OC(OP(=O)(OCc2ccccc2)OCc2ccccc2)C(OC(=O)c2ccccc2)C(OC(=O)c2ccccc2)C1I (centres undefined) is > 100 µM

TGI for COc1ccc(/C=C(/C(=O)N2CCNCC2)c2cc(OC)c(OC)c(OC)c2)cc1O is > 100 µM

TGI for CC(=O)NC1C(OCC(=O)NC(C)C(=O)NC(CCC(=O)NCCCCCNc2ccc([N+](=O)[O-])c3[nH]c4ccccc4c(=O)c23)C(N)=O)C(O)C(CO)OC1(C)OCc1ccccc1 (centres undefined) is > 50 µM

TGI for CCCCc1ccc(N2C(=O)c3cc(C)cnc3S2(=O)=O)cc1 is > 100 µM

TGI for CN(C)CCn1cc(-c2ccc3c(Nc4ccc(CC(=O)Nc5cccc(F)c5)cc4)ncnc3c2)cn1 is 3.09 µM

TGI for CCOC1NC(=O)Oc2ccccc21 (centres undefined) is > 100 µM

TGI for c1ccc(COc2nc3ccc(C45CC6CC(CC(C6)C4)C5)cc3[nH]2)cc1 is > 100 µM

TGI for CC(C)=NN/C(=N\S(=O)(=O)c1cc(Cl)c(Oc2ccc([N+](=O)[O-])cc2Cl)c(Cl)c1)Nc1ccc(Cl)cc1 is > 100 µM
